Data origin: patent US9556145B2

# Lookup of reported IC50 keyed by entry
target: UniProt:O43613; test: FLIPR Ca2+ Flux Assay, orexin-1 receptor; type: cell-based; conditions: CHO cells expressing the receptor; agonist 70 pM Ala-6,12 orexin-A
Answer with a number only, understood to be in nM.

Tell me measured IC50 for COC(=O)c1cc(O[C@@H]2CC[C@@H](C)N(C(=O)c3ccccc3-n3nccn3)C2)ncc1OC [Example 10] please.
597

###

# Lookup of reported pIC50 keyed by entry
target: human orexin-2 receptor (Homo sapiens (Human), UniProt O43614); test: FLIPR Ca2+ Flux Assay, orexin-2 receptor; conditions: CHO cells expressing the receptor; agonist 70 pM Ala-6,12 orexin-A; read-out: hOX2R FLIPR IC50
Sequence (O43614 whole entry): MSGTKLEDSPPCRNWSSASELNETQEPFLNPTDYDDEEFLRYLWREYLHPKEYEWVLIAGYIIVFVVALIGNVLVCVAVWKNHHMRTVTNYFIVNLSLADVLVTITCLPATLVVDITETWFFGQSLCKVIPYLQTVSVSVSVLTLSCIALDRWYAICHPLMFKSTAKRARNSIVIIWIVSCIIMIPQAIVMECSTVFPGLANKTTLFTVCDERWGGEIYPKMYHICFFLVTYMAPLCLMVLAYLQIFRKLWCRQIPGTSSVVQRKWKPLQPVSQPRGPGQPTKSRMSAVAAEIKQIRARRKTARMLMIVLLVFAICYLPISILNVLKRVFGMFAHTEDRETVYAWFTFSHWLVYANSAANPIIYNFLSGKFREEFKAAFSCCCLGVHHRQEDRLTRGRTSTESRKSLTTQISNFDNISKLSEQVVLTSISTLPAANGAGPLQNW
The scale used: pIC50 is minus the common logarithm of the concentration in molar units.

Example entries begin here.
>>> assay_result("COC(=O)c1cc(O[C@@H]2CC[C@@H](C)N(C(=O)c3ccccc3-n3nccn3)C2)ncc1C")
7.96
>>> assay_result("COC(=O)c1ccnc(O[C@@H]2CC[C@@H](C)N(C(=O)c3ccccc3-n3nccn3)C2)c1F")
7.60
>>> assay_result("COC(=O)c1cc(O[C@@H]2CC[C@@H](C)N(C(=O)c3ccccc3-n3nccn3)C2)ncc1Br")
7.22

Let us examine a further case.
Quote pIC50 with test system human orexin-2 receptor (Homo sapiens (Human), UniProt O43614) for COC(=O)c1ccnc(O[C@@H]2CC[C@@H](C)N(C(=O)c3ccc(OC)nc3-n3nccn3)C2)c1
6.39
